system: SN12C renal; assay: NCI tumour cell line growth inhibition, 48 h
Quick reference for TGI among some molecules

1) CC(NC(=O)Cc1ccc(OP(=O)(OCc2ccc([N+](=O)[O-])o2)N(C)CCCCCl)cc1)c1ccc(OCC2CCCCC2)c(C(N)=O)c1 (stereo unspecified) : 4.26 µM

Continue with the molecule presented below.
Problem: Param item = COc1ccc2c(c1)CC[C@@H]1[C@@H]2CC[C@]2(C)/C(=N/OCCN3CCCC3)CC[C@@H]12 ; retrieve measured TGI.
Solution: 15.9 µM

* * *

test system: A549 NSCLC; assay: NCI tumour cell line growth inhibition, 48 h
Experimental readout: TGI

Example results:
1. COc1ccc(-c2nc(-c3ccc(OC)cc3)n(-c3ccccc3)n2)cc1 : > 100 µM
2. CC(=O)Nc1ccccc1-c1nc2ccccc2nc1-c1ccccc1 : > 100 µM
3. CN(C)c1ccc(/C=C/C(=O)c2ccc(Nc3nc(Nc4ccc(F)cc4)nc(Nc4ccc(F)cc4)n3)cc2)cc1 : 34.2 µM
4. C=CC(=O)N[C@@H]1CN(c2nc(Nc3cn(C)nc3OC)c3ncn(C)c3n2)C[C@H]1F : > 100 µM
5. CC(=O)N1C(C(=O)NN2CCOCC2)CSC1c1ccccc1 (stereo unspecified) : > 100 µM

Continue with the compound presented below.
Problem: Param item = O=S(=O)(C1=CC(S(=O)(=O)c2ccccc2)COC1)c1ccccc1 (stereo unspecified) ; retrieve measured TGI.
Solution: > 100 µM
